Where do these numbers come from? They come from patent US10961215B2.

- Tested System: GST tagged LXRalpha LBD (ligand binding domain) (Homo sapiens)
- Sequence (Q13133 209-447 limits assumed): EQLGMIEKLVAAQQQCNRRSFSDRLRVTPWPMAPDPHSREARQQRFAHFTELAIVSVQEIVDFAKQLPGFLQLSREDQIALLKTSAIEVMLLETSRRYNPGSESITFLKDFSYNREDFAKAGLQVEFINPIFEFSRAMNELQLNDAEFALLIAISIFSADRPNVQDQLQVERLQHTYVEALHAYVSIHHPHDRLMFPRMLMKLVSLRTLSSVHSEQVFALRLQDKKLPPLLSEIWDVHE
- Test Method Notes: LanthaScreen TR-FRET Liver X Receptor Coactivator Assay, LXR alpha-LBD (co-activator recruitment; IP and % Emax relative to T0901317)
- Conditions: Inflection Point of co-activator recruitment, LXR alpha-LBD, TR-FRET
- Source text: […]
pEC50: −log10 of the molar value.
Test Readout: pEC50

INSERT INTO assay_data (compound, data_value) VALUES
  ('COc1cccc([C@@](O)(C(=O)N(C)CCCC2CCN(c3ccc(C(=O)N(C)CCO)c(Cl)n3)CC2)C(F)(F)F)c1', 6.15),
  ('CN(C)C(=O)c1ccc(N2CCC(CCCN(C)C(=O)[C@](O)(c3cccc(OC(F)F)c3)C(F)(F)F)CC2)nc1Cl', 5.26),
  ('CN(C)C(=O)c1ccc(N2CCC(CCCN(C)C(=O)[C@]3(C(F)(F)F)CCCO3)CC2)nc1Cl', 5.75),
  ('COc1cccc([C@@](O)(C(=O)N(C)CC[C@H]2CC23CCN(c2ccc(C(=O)N(C)C(C)C)c(Cl)n2)CC3)C(F)(F)F)c1', 6.80),
  ('CN(C)C(=O)c1ccc(N2CCC3(CC2)CC3CCN(C)C(=O)[C@@](O)(c2ccccc2)C(F)(F)F)cc1Cl (stereo partly shown)', 5.39),
  ('CN(C)C(=O)c1ccc(N2CCC(CCCNC(=O)[C@@](O)(c3cccc(O)c3)C(F)(F)F)CC2)nc1Cl', 5.06),
  ('CN(C)C(=O)c1ccc(N2CCC3(CC2)CC3CCN(C)C(=O)[C@](O)(c2cccc(OC(F)(F)F)c2)C(F)(F)F)cc1Cl (stereo in doubt)', 6.08);
